- STUDY_SYSTEM: Aminopeptidase N (Plasmodium falciparum (isolate 3D7)) (UniProt O96935)
- Sequence (O96935 whole entry, looked up): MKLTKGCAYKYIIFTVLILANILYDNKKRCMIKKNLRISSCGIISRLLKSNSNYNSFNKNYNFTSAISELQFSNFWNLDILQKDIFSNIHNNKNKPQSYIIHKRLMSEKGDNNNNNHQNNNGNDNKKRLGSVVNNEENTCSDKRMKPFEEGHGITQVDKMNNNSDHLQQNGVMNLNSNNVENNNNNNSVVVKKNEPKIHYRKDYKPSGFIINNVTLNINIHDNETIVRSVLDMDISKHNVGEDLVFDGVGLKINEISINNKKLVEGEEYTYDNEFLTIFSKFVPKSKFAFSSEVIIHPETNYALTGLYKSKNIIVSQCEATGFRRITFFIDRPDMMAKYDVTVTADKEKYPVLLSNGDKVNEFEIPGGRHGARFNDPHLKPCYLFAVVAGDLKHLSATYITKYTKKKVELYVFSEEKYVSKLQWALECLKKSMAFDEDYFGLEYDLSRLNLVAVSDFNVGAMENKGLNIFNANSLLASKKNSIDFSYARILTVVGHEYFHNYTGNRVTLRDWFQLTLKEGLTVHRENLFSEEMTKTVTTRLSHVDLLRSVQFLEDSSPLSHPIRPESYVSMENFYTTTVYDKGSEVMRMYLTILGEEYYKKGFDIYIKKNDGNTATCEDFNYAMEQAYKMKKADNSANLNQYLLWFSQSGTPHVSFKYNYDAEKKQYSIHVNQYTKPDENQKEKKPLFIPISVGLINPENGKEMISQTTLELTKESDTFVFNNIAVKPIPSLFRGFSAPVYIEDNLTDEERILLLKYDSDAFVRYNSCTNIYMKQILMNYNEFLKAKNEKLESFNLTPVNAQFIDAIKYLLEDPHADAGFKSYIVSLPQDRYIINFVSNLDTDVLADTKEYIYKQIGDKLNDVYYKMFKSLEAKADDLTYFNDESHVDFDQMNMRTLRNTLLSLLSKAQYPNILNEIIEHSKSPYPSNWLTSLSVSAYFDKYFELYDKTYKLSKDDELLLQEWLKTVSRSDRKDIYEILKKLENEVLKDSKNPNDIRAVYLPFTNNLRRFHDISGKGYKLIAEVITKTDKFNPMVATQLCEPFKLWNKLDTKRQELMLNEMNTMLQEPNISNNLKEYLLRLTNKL
- ASSAY_PROTOCOL: malaria alanyl aminopeptidase activity blockers – biochemical, fluorogenic H-Leu-NHMec substrate, 1536-well (AID 1445);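 also: plate controls were DMSO full reaction for no effect and no enzyme background for full effect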
- TEST_CONDITIONS: recombinant M1AAP, H-Leu-NHMec fluorogenic kinetic assay; at 30 µM, active compounds read high unless noted
About 910 (0.41%) of roughly 220,000 compounds were called active. Only a selection was taken, and actives are over-represented in it overall. Results with a measured potency or affinity are listed apart.
Measured inhibition of individual entries
ENDPOINT_LABEL: inhibition (%)

compound="COc1ccccc1N1CCN(c2nc3ccccc3nc2C(C#N)C(=O)OC(C)C)CC1 (stereo not given)" study_system="Aminopeptidase N (Plasmodium falciparum (isolate 3D7)) (UniProt O96935)" endpoint_label=inhibition assay_result=1.03
compound=N=C1/C(=C\c2coc3ccccc3c2=O)C(=O)N=C2SC=CN12 study_system="Aminopeptidase N (Plasmodium falciparum (isolate 3D7)) (UniProt O96935)" endpoint_label=inhibition assay_result=52.2
compound=O=c1[nH]ncc(N2CCCCCC2)c1Cl study_system="Aminopeptidase N (Plasmodium falciparum (isolate 3D7)) (UniProt O96935)" endpoint_label=inhibition assay_result=5.89
compound=Cc1ccc(-c2cc(C(=O)O)n[nH]2)o1 study_system="Aminopeptidase N (Plasmodium falciparum (isolate 3D7)) (UniProt O96935)" endpoint_label=inhibition assay_result=5.31
compound=NNC(=O)CSc1nnnn1-c1ccccc1 study_system="Aminopeptidase N (Plasmodium falciparum (isolate 3D7)) (UniProt O96935)" endpoint_label=inhibition assay_result=-3.57
